target_desc: CYP3A4 (Homo sapiens (Human), UniProt P08684)
Sequence (P08684 whole entry): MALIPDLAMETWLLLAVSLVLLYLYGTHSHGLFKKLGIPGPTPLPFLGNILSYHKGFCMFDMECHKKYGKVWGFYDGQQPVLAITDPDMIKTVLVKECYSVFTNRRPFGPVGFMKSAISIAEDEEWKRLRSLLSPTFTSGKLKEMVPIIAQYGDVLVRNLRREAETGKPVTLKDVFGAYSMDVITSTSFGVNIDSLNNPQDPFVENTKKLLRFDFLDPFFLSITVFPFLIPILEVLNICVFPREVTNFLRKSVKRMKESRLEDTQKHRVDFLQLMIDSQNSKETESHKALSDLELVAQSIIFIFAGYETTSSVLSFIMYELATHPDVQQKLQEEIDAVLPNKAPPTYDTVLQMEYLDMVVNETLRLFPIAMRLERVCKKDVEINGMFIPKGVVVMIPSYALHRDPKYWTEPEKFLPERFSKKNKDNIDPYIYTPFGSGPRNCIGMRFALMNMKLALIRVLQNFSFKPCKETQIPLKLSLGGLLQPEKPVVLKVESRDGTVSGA
method_description: biochemical
Assay type: in vitro ADME
stated_conditions: CYP3A4 (IC50 μM) Pre-incubation, 30 min preincubation with NADPH; human liver microsomes, midazolam 0.5 μmol/L
measurement_kind: IC50 (µM)
Your answer is read as µM, so omit the unit and give the number.

| molecule | IC50 [µM] |
| --- | --- |
| CCCCCCCC(F)(F)CCCCCC/C=C/[C@H](C(=O)N[C@@H](Cc1ccc(OCCCC)cc1)C(=O)OC)[C@@](O)(CCOC)C(=O)O [No. 5514403] | 11.9 |

**Query** Report IC50 under test system CYP3A4 (Homo sapiens (Human), UniProt P08684) for CCCCCCCC(F)(F)CCCCCC/C=C/[C@H](C(=O)N[C@@H](Cc1ccc(OCCCC)cc1)C(=O)O)[C@@](O)(CCOC)C(=O)O [No. 5526064] .
**Result** 11.8

Value source: patent US9266853B2
